Molecular target: T1, human GIP receptor (human) (UniProt P48546)
T1 sequence (looked up): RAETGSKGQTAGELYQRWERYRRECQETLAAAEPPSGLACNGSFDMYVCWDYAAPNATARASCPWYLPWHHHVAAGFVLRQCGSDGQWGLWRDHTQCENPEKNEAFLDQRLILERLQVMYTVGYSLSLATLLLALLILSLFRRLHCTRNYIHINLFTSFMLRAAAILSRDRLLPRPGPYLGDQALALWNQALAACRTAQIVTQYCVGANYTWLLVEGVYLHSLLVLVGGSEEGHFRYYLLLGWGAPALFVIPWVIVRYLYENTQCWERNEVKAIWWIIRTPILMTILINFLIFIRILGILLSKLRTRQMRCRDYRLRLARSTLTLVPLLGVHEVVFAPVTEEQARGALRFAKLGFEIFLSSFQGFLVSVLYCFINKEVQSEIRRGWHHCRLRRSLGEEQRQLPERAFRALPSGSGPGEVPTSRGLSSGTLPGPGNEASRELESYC
Test: cell-based or functional assay
Starred links: 1 amine or outer side, 2 acyl side, 3 side chain; linkers in the order of their positions; H or OH if unused. Non-standard residues stand in square brackets, D forms with d. Groups on a side chain read outwards from the residue. No end group written: not given here. *: point of attachment. C20 diacid = O=C(O)CCCCCCCCCCCCCCCCCCC(=O)*; αMePhe(2-F) = C[C@](N)(Cc1ccccc1F)C(=O)O; γGlu = O=C(O)[C@H](CCC(=O)[*:2])N[*:1]; AEEA = NCCOCCOCC(=O)O; Aib = CC(C)(N)C(=O)O
I'd be grateful if you could share measured Relative cAMP EC50 for these entries.
Numbers only, in nM.

Known results for binders:
binder: Y[Aib]QGT[αMePhe(2-F)]TSDYSKLLDKIAQK([AEEA-γGlu-C20 diacid])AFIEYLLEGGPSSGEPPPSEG-NH2 [Example 295]
Relative cAMP EC50 / nM: 0.126
--
binder: YXQGTFTSDXSQXLDKKAQXAFIEYLIAGGPSSGAPPPSGSEE (synthetic construct; SITE 2: note = 2-Aminoisobutyric Acid; SITE 10: note = 3-(4-Pyridyl)-L-alanine; SITE 13: note = alpha-methyl-leucine; SITE 17: note = Lysine is chemically modified through conjugation of the epsilon-amino group of the Lysine side chain with (Glu)-(gamma-Glu)-CO-(CH2)16-CO2H; SIT) [Example 1030]
Relative cAMP EC50 / nM: 0.122
--
binder: YXQGTFTSDFSXXLDKKAQXAFIEWLLEGGHSSGAPPPSGH (synthetic construct; SITE 2: note = 2-Aminoisobutyric Acid; SITE 12: note = L-ornithine; SITE 13: note = alpha-methyl-leucine; SITE 17: note = Lysine is chemically modified through conjugation of the epsilon-amino group of the Lysine side chain with (2-[2-(2-Amino-ethoxy)-ethoxy]-acetyl)-(gamma-Glu)) [Example 269]
Relative cAMP EC50 / nM: 0.288
--
binder: YXQGTFTSDFSQXLDKKAQXAFIEYLLEXGPSSGAPPPSGS (synthetic construct; SITE 2: note = 2-Aminoisobutyric Acid; SITE 13: note = alpha-methyl-leucine; SITE 17: note = Lysine is chemically modified through conjugation of the epsilon-amino group of the Lysine side chain with (gamma-Glu)2-CO-(CH2)16-CO2H; SITE 20: note = 2-Aminoisobutyric Acid; SITE 29:) [Example 784]
Relative cAMP EC50 / nM: 0.0587
--
binder: YXQGTXTSDXSIXLDXKAQXEFIEXLAEGGPSSGAPPPSGS (non-natural residues; acylated Lys; C-terminal amide; synthetic construct; SITE 2: note = 2-Aminoisobutyric Acid; SITE 6: note = alpha-methyl-2-fluoro-L-phenylalanine; SITE 10: note = 3-(4-Pyridyl)-L-alanine; SITE 13: note = alpha-methyl-leucine; SITE 16: note = L-ornithine; SITE 17: note = Lysine is chemically modified through conjugation of the epsil) [Example 642]
Relative cAMP EC50 / nM: 0.00796

Parameters: items (list). Returns: Relative cAMP EC50 for each item.
1. YXQATXTSDXXIXLDXKAQXEFIEXLIEGGPSSGAPPPSGS (synthetic construct; SITE 2: note = 2-Aminoisobutyric Acid; SITE 4: note = D-amino acid; SITE 6: note = alpha-methyl-2-fluoro-L-phenylalanine; SITE 10: note = 3-(4-Pyridyl)-L-alanine; SITE 11: note = alpha-methyl-L-serine; SITE 13: note = alpha-methyl-leucine; SITE 16: note = L-ornithine; SITE 17: n) [Example 1203]
2. YXQGTFTSDFSRXLDKKAQXAFIEYLIEXSPSSGAPPPSGS (synthetic construct; SITE 2: note = 2-Aminoisobutyric Acid; SITE 13: note = alpha-methyl-leucine; SITE 17: note = Lysine is chemically modified through conjugation of the epsilon-amino group of the Lysine side chain with (2-[2-(2-Amino-ethoxy)-ethoxy]-acetyl)-(gamma-Glu)-CO-(CH2) 16-CO2H; SITE 20: n) [Example 806]

OUT:
0.0774
0.124

Parameters: items (list). Returns: Relative cAMP EC50 for each item.
1. YXQGTXTSDYSIXLDKKAQXAFIEYLEEGGPSSGAPPPSEG (synthetic construct; SITE 2: note = 2-Aminoisobutyric Acid; SITE 6: note = alpha-methyl-L-phenylalanine; SITE 13: note = alpha-methyl-leucine; SITE 17: note = Lysine is chemically modified through conjugation of the epsilon-amino group of the Lysine side chain with (2-[2-(2-Amino-ethoxy)-ethoxy]-ace)) [Example 395]
2. YXQGTFTSDXSQXLDXKAQXAFIQXLIAXGPSSGEPPPSGGGE (Lys acylated γGlu-C18 diacid; non-natural residues; C-amide; synthetic construct; SITE 2: note = 2-Aminoisobutyric Acid; SITE 10: note = 3-(4-Pyridyl)-L-alanine; SITE 13: note = alpha-methyl-leucine; SITE 16: note = L-ornithine; SITE 17: note = Lysine is chemically modified through conjugation of the epsilon-amino group of the Lysine side chain with D-Glutami) [Example 1130]
3. YXQGTXTSDXXIXLDXKAQXEFIEXLIEGGPSSGEPPPSGGGE (Aib, αMe residues, 4Pal, Orn, Me4Pal; acylated K; amide; synthetic construct; SITE 2: note = 2-Aminoisobutyric Acid; SITE 6: note = alpha-methyl-L-phenylalanine; SITE 10: note = 3-(4-Pyridyl)-L-alanine; SITE 11: note = alpha-methyl-L-serine; SITE 13: note = alpha-methyl-leucine; SITE 16: note = L-ornithine; SITE 17: note = Lysine is chemically modified th) [Example 1175]
4. YXQGTXTSDXXIXLDXKAQXXFIEXLIEGGPSSGAPEPSEG (synthetic construct; SITE 2: note = 2-Aminoisobutyric Acid; SITE 6: note = alpha-methyl-2-fluoro-L-phenylalanine; SITE 10: note = 3-(4-Pyridyl)-L-alanine; SITE 11: note = alpha-methyl-L-serine; SITE 13: note = alpha-methyl-leucine; SITE 16: note = L-ornithine; SITE 17: note = Lysine is chemically mo) [Example 429]
5. YXQGTFTSDFSXXLDKKAQXAFIEWLLEGGPSSGAPPPSGS (synthetic construct; SITE 2: note = 2-Aminoisobutyric Acid; SITE 12: note = L-ornithine; SITE 13: note = alpha-methyl-leucine; SITE 17: note = Lysine is chemically modified through conjugation of the epsilon-amino group of the Lysine side chain with (2-[2-(2-Amino-ethoxy)-ethoxy]-acetyl)-(gamma-Glu)) [Example 78]

OUT:
[0.0248, 0.0441, 0.00962, 0.0142, 0.228]
